System: Escherichia coli TOP10;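 further: peptides expressed intracellularly from a pBAD plasmid library in pooled LB shake-flask culture, induced with 0.3% L-arabinose, DNA abundance read by NGS, three biological replicates, DESeq2 with apeglm shrinkage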
assay_remarks: shrunken log2 fold change of peptide-encoding DNA abundance (4.5 h post-induction vs induction); higher = less antimicrobial activity (less host growth inhibition)
assay_setup: time post-induction: 4.5 h; library: site-saturation at positions 5, 18, 19, 20
Binning of shrunken log2 fold change into classes: low bracket = under -0.1, middle bracket = from -0.1 up to 0.2, high bracket = 0.2 and over

>>> label_value("RRIRQRPPRLPRPRPRPFMEPRP")
"high bracket"
>>> label_value("RRIRNRPPRLPRPRPRPGMAPRP")
"middle bracket"
>>> label_value("RRIRNRPPRLPRPRPRPISHPRP")
"low bracket"
>>> label_value("RRIRYRPPRLPRPRPRPGEQPRP")
"middle bracket"
>>> label_value("RRIRCRPPRLPRPRPRPVNNPRP")
"low bracket"
>>> label_value("RRIRERPPRLPRPRPRPVWQPRP")
"middle bracket"
>>> label_value("RRIRNRPPRLPRPRPRPDVHPRP")
"middle bracket"
>>> label_value("RRIRMRPPRLPRPRPRPTENPRP")
"high bracket"
>>> label_value("RRIRHRPPRLPRPRPRPRFKPRP")
"low bracket"
>>> label_value("RRIRPRPPRLPRPRPRPRRWPRP")
"high bracket"
>>> label_value("RRIRVRPPRLPRPRPRPHYKPRP")
"low bracket"
>>> label_value("RRIRNRPPRLPRPRPRPHLFPRP")
"middle bracket"
>>> label_value("RRIRARPPRLPRPRPRPDCFPRP")
"high bracket"
>>> label_value("RRIRARPPRLPRPRPRPNTWPRP")
"middle bracket"
>>> label_value("RRIRFRPPRLPRPRPRPIAMPRP")
"middle bracket"
>>> label_value("RRIRYRPPRLPRPRPRPNWRPRP")
"high bracket"
>>> label_value("RRIRCRPPRLPRPRPRPNCNPRP")
"low bracket"
>>> label_value("RRIRTRPPRLPRPRPRPQYIPRP")
"low bracket"
>>> label_value("RRIRTRPPRLPRPRPRPSKSPRP")
"low bracket"
>>> label_value("RRIRPRPPRLPRPRPRPRAVPRP")
"high bracket"
>>> label_value("RRIRRRPPRLPRPRPRPCTTPRP")
"high bracket"
>>> label_value("RRIRWRPPRLPRPRPRPVAGPRP")
"high bracket"
>>> label_value("RRIRPRPPRLPRPRPRPYMVPRP")
"low bracket"
>>> label_value("RRIRCRPPRLPRPRPRPWQQPRP")
"middle bracket"
>>> label_value("RRIRARPPRLPRPRPRPRPRPRP")
"high bracket"
>>> label_value("RRIRQRPPRLPRPRPRPWPYPRP")
"middle bracket"
>>> label_value("RRIRLRPPRLPRPRPRPPFQPRP")
"middle bracket"
>>> label_value("RRIRQRPPRLPRPRPRPYDKPRP")
"low bracket"
>>> label_value("RRIRKRPPRLPRPRPRPMHDPRP")
"high bracket"
>>> label_value("RRIRWRPPRLPRPRPRPAKAPRP")
"high bracket"
>>> label_value("RRIRRRPPRLPRPRPRPTMTPRP")
"high bracket"
>>> label_value("RRIRTRPPRLPRPRPRPYGQPRP")
"low bracket"
>>> label_value("RRIRWRPPRLPRPRPRPSGVPRP")
"low bracket"
>>> label_value("RRIRMRPPRLPRPRPRPTAYPRP")
"high bracket"
>>> label_value("RRIRWRPPRLPRPRPRPGGFPRP")
"high bracket"
>>> label_value("RRIRTRPPRLPRPRPRPYNKPRP")
"low bracket"
>>> label_value("RRIRNRPPRLPRPRPRPIDGPRP")
"middle bracket"
>>> label_value("RRIRPRPPRLPRPRPRPPQPPRP")
"high bracket"
>>> label_value("RRIRGRPPRLPRPRPRPMNKPRP")
"high bracket"
>>> label_value("RRIRGRPPRLPRPRPRPMQVPRP")
"middle bracket"
>>> label_value("RRIRLRPPRLPRPRPRPEQAPRP")
"middle bracket"
>>> label_value("RRIRKRPPRLPRPRPRPFIMPRP")
"low bracket"
>>> label_value("RRIRERPPRLPRPRPRPALEPRP")
"middle bracket"
>>> label_value("RRIRDRPPRLPRPRPRPVAKPRP")
"high bracket"
>>> label_value("RRIRQRPPRLPRPRPRPGHWPRP")
"middle bracket"
>>> label_value("RRIRFRPPRLPRPRPRPFMEPRP")
"low bracket"
>>> label_value("RRIRGRPPRLPRPRPRPMEIPRP")
"middle bracket"
>>> label_value("RRIRCRPPRLPRPRPRPTYVPRP")
"low bracket"
>>> label_value("RRIRSRPPRLPRPRPRPNHWPRP")
"low bracket"
>>> label_value("RRIRTRPPRLPRPRPRPFEAPRP")
"middle bracket"
>>> label_value("RRIRCRPPRLPRPRPRPGMNPRP")
"low bracket"
>>> label_value("RRIRFRPPRLPRPRPRPQQDPRP")
"low bracket"
>>> label_value("RRIRYRPPRLPRPRPRPTPEPRP")
"high bracket"
>>> label_value("RRIRLRPPRLPRPRPRPTKYPRP")
"low bracket"
>>> label_value("RRIRKRPPRLPRPRPRPAQRPRP")
"high bracket"
>>> label_value("RRIRLRPPRLPRPRPRPLIEPRP")
"middle bracket"
>>> label_value("RRIRLRPPRLPRPRPRPGLQPRP")
"low bracket"
>>> label_value("RRIRGRPPRLPRPRPRPKAFPRP")
"middle bracket"
>>> label_value("RRIRFRPPRLPRPRPRPVKSPRP")
"low bracket"
